Data origin: ChEMBL document CHEMBL3627674

target: UniProtKB P04629
Sequence (P04629 whole entry): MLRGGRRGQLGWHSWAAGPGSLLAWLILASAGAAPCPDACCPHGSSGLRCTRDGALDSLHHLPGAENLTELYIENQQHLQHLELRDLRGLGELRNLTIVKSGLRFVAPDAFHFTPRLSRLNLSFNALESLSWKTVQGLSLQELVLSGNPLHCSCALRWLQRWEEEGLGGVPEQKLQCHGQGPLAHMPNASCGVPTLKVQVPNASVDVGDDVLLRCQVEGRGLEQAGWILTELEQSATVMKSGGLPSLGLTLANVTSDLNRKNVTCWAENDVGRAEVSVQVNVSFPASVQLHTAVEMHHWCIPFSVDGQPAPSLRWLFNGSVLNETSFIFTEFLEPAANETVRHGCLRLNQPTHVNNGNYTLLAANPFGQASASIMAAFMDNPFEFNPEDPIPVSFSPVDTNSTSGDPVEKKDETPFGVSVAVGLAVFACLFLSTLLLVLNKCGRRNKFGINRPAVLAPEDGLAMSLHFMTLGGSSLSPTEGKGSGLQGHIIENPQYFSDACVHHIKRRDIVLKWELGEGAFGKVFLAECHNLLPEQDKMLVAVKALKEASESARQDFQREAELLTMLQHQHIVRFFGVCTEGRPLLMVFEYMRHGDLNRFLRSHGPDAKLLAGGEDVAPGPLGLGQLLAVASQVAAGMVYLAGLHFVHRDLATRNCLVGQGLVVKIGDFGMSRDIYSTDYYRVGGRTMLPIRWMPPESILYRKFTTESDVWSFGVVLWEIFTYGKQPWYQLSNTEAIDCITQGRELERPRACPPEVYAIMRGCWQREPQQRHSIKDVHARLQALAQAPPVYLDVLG

{"Compound Structure": "O=C1c2ccccc2-c2c1oc1ccccc1c2=O", "IC50 (µM)": 55.8}
{"Compound Structure": "Cn1c2c(c(=O)c3ccc(Cl)cc31)-c1ccccc1C2=O", "IC50 (µM)": 88.5}
{"Compound Structure": "COc1ccc2c(c1)C(=O)c1c-2c(=O)c2ccccc2n1Cc1ccccc1", "IC50 (µM)": 16.4}
{"Compound Structure": "Cn1c2c(c(=O)c3ccccc31)-c1ccccc1C2=O", "IC50 (µM)": 28.9}
